Biological target: T1, Human CD98 ECD with C-terminal His-tag (human, UniProt P08195 105-529)
T1 construct: also called huCD98 ECD; recombinant human CD98 extracellular domain
T1 sequence: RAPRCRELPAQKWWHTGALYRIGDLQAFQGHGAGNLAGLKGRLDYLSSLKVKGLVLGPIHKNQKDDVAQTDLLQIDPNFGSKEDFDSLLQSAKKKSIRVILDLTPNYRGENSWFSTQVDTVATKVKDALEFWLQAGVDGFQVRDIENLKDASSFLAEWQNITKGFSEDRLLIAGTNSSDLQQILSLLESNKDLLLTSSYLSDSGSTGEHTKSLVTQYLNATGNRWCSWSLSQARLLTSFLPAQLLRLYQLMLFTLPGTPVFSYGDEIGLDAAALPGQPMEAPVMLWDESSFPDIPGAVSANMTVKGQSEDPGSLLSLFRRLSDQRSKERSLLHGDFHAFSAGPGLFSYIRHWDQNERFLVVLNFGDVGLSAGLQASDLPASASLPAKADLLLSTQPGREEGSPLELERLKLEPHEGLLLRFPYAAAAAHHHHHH
Assay: SPR Biacore, anti-Fc capture of mAb, CD98 ECD analyte
Entries and their kon values follow.

# binder, kon, M⁻¹ s⁻¹
rows = [
    ("Anti-CD98 rat hybridoma antibody Ab6 (antibody, V domains shown) VH: QVQLKESGPGLAQPSQTLSLTCTVSGFSLSTYGVIWLRQPPGKGLEWMGVIWTNGNTNYNSTLKSRLSISRDTSESQVYLQMNSLQTEDTATYYCARHYYDGAYYYGYFDYWGQGVMVTVSS VL: DIVMTQTPSSQAVSAGEKVTMSCKSSQSLLYSENKKNYLAWYQQKPGQSPKLLIYWASTRESGVPDRFIGSGSGTDFTLTISSVQAEDLAVYYCQQYYYFPYTFGAGTKLELK", 150000),
    ("Anti-CD98 murine hybridoma antibody Ab5 (antibody, V domains shown) VH: EVKLVESGGGLVQPGGSLRLSCATSGFTFTDYYMTWVRQPPGKALEWLGFIRNKANGYTTEYSASVKGRFTISRDNSLSILYLQMNTLRAEDSATYYCARASYVNSEGWFAYWGQGTLVTVSA VL: DIVMSQSPSSLAVSVGEKVTMSCKSSQSLLYSSNQKNYLAWYQQKLGQSPKLLIYWASTRESGVPDRFTGSGSGTDFTLTISSVKAEDLAVYYCQHYYSYPRTFGGGTKLEIK", 52000),
    ("Anti-CD98 rat hybridoma antibody Ab7 (antibody, V domains shown) VH: QVQLKESGPGLVQPSQTLSLTCTVSGFSLSTYGVIWVRQPPGKGLEWMGVIWANGNTNYNSTLKSRLSISRDTSKSQVYLKMNSLQTEDTATYYCARHYYDGTYYYGYFDYWGQGVMVTVSS VL: DIVMTQTPSSQAVSAGEKVTMNCKSSQSLLYSENKKNYLAWYQQKPGQSPKLLIYWASTRESGVPDRFIGSGSGTDFTLTISSVQAEDLAVYYCQQYYYFPYTFGPGTKLELK", 200000),
]
